Test system: HCV genotype 1b (Con1) replicon in HUH-7 cells
Measurement Notes: HCV replicon luciferase reporter assay, genotype 1b
Assay type: cell-based
Applied Conditions: Hepatitis C virus, 72 h, genotype 1b replicon, 3 days incubation, read-out: LE_1b (EC50, range)
Attribute: EC50

[
  {
    "Cpd Smiles": "CC[C@@H]1O[C@H](C)CC/C=C\\[C@@H]2C[C@@]2(C(=O)NS(=O)(=O)C2(C)CC2)NC(=O)[C@@H]2C[C@@H](Oc3cc(OC)nc4cc(OC)c(F)cc34)CN2C(=O)[C@H]1NC(=O)OC(C)(C)C(F)(F)F",
    "Target Under Test": "HCV genotype 1b (Con1) replicon in HUH-7 cells",
    "EC50": "0.51 to 1 nM"
  },
  {
    "Cpd Smiles": "CC[C@@H]1O[C@H](C)CC/C=C\\[C@@H]2C[C@@]2(C(=O)NS(=O)(=O)C2(C)CC2)NC(=O)[C@@H]2C[C@@H](Oc3cc(OC)nc4cc(OC)ccc34)CN2C(=O)[C@H]1NC(=O)OC(C)(C)C(C)(F)F",
    "Target Under Test": "HCV genotype 1b (Con1) replicon in HUH-7 cells",
    "EC50": "0.51 to 1 nM"
  },
  {
    "Cpd Smiles": "CC[C@@H]1O[C@H](C)CC/C=C\\[C@@H]2C[C@@]2(C(=O)NS(=O)(=O)C2(C)CC2)NC(=O)[C@@H]2C[C@@H](Oc3ncc(OC)c4ccccc34)CN2C(=O)[C@H]1NC(=O)OC(C)(C)C(F)(F)F",
    "Target Under Test": "HCV genotype 1b (Con1) replicon in HUH-7 cells",
    "EC50": "0.1 to 0.5 nM"
  },
  {
    "Cpd Smiles": "COc1cc(F)cc2c(O[C@@H]3C[C@H]4C(=O)N[C@]5(C(=O)NS(=O)(=O)C6(C)CC6)C[C@H]5/C=C\\CC[C@@H](C)O[C@@H](C)[C@H](NC(=O)OC(C)(C)C(F)(F)F)C(=O)N4C3)nccc12",
    "Target Under Test": "HCV genotype 1b (Con1) replicon in HUH-7 cells",
    "EC50": "0.1 to 0.5 nM"
  }
]
